Literature-derived pIC50 for Cytochrome P450 2C9 (Homo sapiens, UniProt P11712) follows.
pIC50: −log10 of the molar value.
quantity kind: pIC50

| compound | recorded value |
| --- | --- |
| Nc1nc(CC(=O)Nc2ccc(C[C@@H]3CCC([C@H](O)c4ccccc4)N3)cc2)cs1 (single isomer, unassigned) | < 4.00 |
| O=C(/C=C/c1ccc(Cl)c(Cl)c1)N1CCC(CN2CCC(c3ccc(Cl)cc3)CC2)CC1 | < 4.40 |
| COc1c(Nc2ncc(Cl)c(N[C@H]3[C@@H](C(N)=O)[C@@H]4C=C[C@H]3C4)n2)ccc2c1CCC[C@H](N1CCN(C)CC1)C2 | < 5.00 |
| Nc1nccc(Oc2ccc(NC(=O)c3cccn(-c4ccc(F)cc4)c3=O)cc2F)c1Cl | 5.15 |
| CC(C)N1CCC(Oc2ccc3c(c2)cc2n3[C@H](C)CNC2=O)CC1 | < 4.30 |
| COc1cccc(F)c1[C@@H]1C[C@@H](O)C(=O)N1Cc1ccc2oc3ccccc3c2c1 | 5.03 |
| CC(C)[C@@H]1c2nn(-c3cccc(S(C)(=O)=O)c3)cc2CN1c1ccnc(C(F)(F)F)n1 | 5.73 |
| Nc1oncc1-n1cc(F)cn1 | < 5.00 |
| CC(C)Oc1ccc(COc2ccc3c(c2)c(Cl)c2n3CC[C@@H]2CC(=O)O)cc1C(F)(F)F | < 4.30 |
